target: Stimulator of interferon genes protein (Homo sapiens); test: Activation of human STING R232 variant transfected in HEK293T cells expressing ISRE.ISG54 luciferase reporter assessed as secretory reporter gene activity by measuring luciferase level incubated for 20 hrs by luminometer
Sequence (Q86WV6 whole entry, looked up): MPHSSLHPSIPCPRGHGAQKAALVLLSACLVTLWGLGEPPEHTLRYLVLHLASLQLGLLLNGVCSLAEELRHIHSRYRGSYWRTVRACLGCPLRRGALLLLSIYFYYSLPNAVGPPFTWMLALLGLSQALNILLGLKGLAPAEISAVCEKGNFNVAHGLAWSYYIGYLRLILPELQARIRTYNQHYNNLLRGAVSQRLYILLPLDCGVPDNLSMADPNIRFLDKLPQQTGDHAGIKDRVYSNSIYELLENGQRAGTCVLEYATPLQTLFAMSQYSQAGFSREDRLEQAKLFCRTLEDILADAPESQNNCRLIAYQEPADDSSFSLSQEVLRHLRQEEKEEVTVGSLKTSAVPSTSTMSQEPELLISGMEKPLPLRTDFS
pEC50: −log10 of the molar value.
Label 1 when pEC50 is at or above 6; otherwise label -1.

Some entries whose results are on file:
> print(dat)
                                   compound  assigned.class
1  O=C(NCc1c(F)cc(F)cc1F)c1ccc2c(c1)-n1c(nnc1-c1ccccc1)CS2              -1
2  CC1Sc2ccc(C(=O)NCc3c(F)cc(F)cc3F)cc2-n2c(-c3cccc(F)c3)nnc21 (racemic)              -1
3  CC1Sc2ccc(C(=O)NCc3cc4cc(F)ccc4o3)cc2-n2c(-c3ccc(F)cc3F)nnc21 (racemic)               1

Qu. Could you verify whether the entry CC1Sc2ncc(C(=O)NCc3cc4ccccc4o3)cc2-n2c(-c3ccccc3)nnc21 (racemic) shows pEC50 of no less than 6?
Ans. 1

Qu. Is pEC50 for CC1Sc2ccc(C(=O)NCc3cc4ccc(F)cc4o3)cc2-n2c(-c3ccc(F)cc3)nnc21 (racemic) at or above 6?
Ans. 1

Qu. I'd appreciate it if you could say whether Cc1ccc(-c2nnc3n2-c2cc(C(=O)NCc4c(F)cc(F)cc4F)ccc2SC3C)cc1 (racemic) has pEC50 at least equal to 6.
Ans. -1
